- Tested target: T1, IL-11 (Cat. 12225-HNCE, Sino Biological Inc.) (UniProt P20809 22-199, limits assumed)
- T1 sequence (looked up): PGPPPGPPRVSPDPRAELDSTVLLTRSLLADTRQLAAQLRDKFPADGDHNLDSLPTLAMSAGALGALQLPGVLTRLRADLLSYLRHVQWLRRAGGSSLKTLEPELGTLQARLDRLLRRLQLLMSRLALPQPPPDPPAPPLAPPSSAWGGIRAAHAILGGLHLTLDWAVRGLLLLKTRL
- Procedure text: cell-based or functional assay
Endpoint label: Blocking activity (IC50), STAT3-luc reporter (mg/L)

Binder	Recorded value
hz18A10-VHm6 + hz18A10-VLm19 (antibody, V domains shown, Constant regions not restated for this antibody) VH: EVQLVQSGAEVKKPGASVKVSCKASGYTFNHYDMDWVRQAPGQGLEWMGTIYPGNGDTSYNQKFKGRVTMTRDTSTSTVYMELSSLRSEDTAVYYCARGDLYALDYWGQGTLVTVSS VL: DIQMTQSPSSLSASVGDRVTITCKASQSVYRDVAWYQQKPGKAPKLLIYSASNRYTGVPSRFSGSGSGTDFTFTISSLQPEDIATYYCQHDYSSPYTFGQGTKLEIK	0.017
hz18A10 (antibody, human IgG1, kappa, V domains shown, humanized, human constant regions; also called hz18A10-VH + hz18A10-VL; parent antibody hz18A10) VH: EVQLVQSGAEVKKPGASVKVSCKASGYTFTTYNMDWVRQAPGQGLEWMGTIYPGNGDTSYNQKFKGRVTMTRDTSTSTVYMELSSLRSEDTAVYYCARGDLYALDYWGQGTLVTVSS VL: DIQMTQSPSSLSASVGDRVTITCKASQSVSNDVAWYQQKPGKAPKLLIYSASNRYTGVPSRFSGSGSGTDFTFTISSLQPEDIATYYCQHDYSSPYTFGQGTKLEIKR	18.5
hz18A10-VHm10 + hz18A10-VLm19 (antibody, V domains shown, Constant regions not restated for this antibody) VH: EVQLVQSGAEVKKPGASVKVSCKASGYTFNHYNMDWVRQAPGQGLEWMGTIYPGNGDTSYNQKFKGRVTMTRDTSTSTVYMELSSLRSEDTAVYYCARGDLYALDYWGQGTLVTVSS VL: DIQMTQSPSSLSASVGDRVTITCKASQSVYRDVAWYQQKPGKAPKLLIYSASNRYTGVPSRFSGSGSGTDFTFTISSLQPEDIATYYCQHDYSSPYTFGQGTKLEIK	0.136
